// values below are reported microsomal CLint
# experimental-protocol: Metabolic stability (Clint) in gerbil microsomes
# Assay type: in vitro ADME

Here are 5 compounds together with their reported answers.
* COC(=O)Nc1nc2cc(C(=O)c3cccc4c3B(O)O[C@@H]4C)ccc2[nH]1 (single isomer, unassigned) | < 4 µL/min/mg
* COC(=O)Nc1nc2cc(C(=O)c3ccc4c(c3)COB4O)ccc2[nH]1 | 11.7 µL/min/mg
* COC(=O)Nc1nc2cc(C(=O)c3ccc4c(c3)B(O)O[C@H]4C)ccc2[nH]1 (single isomer, unassigned) | < 4 µL/min/mg
* COC(=O)Nc1nc2ccc(C(=O)c3ccc(Cl)c4c3B(O)OC4)cc2[nH]1 | < 4 µL/min/mg
* COC(=O)Nc1nc2cc(C(=O)c3ccc4c(c3)B(O)OC4)ccc2[nH]1 | 8.25 µL/min/mg

Next, consider the following compound.
[ask] Retrieve microsomal CLint measured for COC(=O)Nc1nc2cc(C(=O)CCc3ccc4c(c3)B(O)OC4(C)C)ccc2[nH]1 and print it.
[reply] 26.7 µL/min/mg

---

# experimental-protocol: Pharmacokinetics in Mongolian gerbils
# Type: in vivo
# particulars: blood, 2 mg/kg; Mongolian gerbils, dose 2, IV; read-out: Cmax
Where Cmax equals or exceeds 2000 ng/mL, the correct label is yes (1); where it does not, the label is no (0).

[ask] Does the compound COC(=O)Nc1nc2ccc(C(=O)c3cccc4c3B(O)OC4)cc2[nH]1 have recorded Cmax that is 2000 ng/mL or more?
[reply] no (0)

---

# experimental-protocol: Pharmacokinetics in Mongolian gerbils
# Assay type: in vivo
# particulars: blood, 100 mg/kg; Table 3, PO, dose 100; read-out: AUC0-last
attribute-measured: AUC(0-t) (µg·h/mL)
Write down the numeric answer in µg·h/mL and omit the unit.

[ask] Retrieve AUC(0-t) measured for COC(=O)Nc1nc2ccc(C(=O)c3cccc4c3B(O)OC4)cc2[nH]1 and print it.
[reply] 479

---

# experimental-protocol: Pharmacokinetics in Mongolian gerbils
# Type: in vivo
# particulars: blood, 30 mg/kg; Table 3, PO, dose 30; read-out: AUC0-last
attribute-measured: AUC(0-t)

[ask] Retrieve AUC(0-t) measured for COC(=O)Nc1nc2ccc(C(=O)c3cccc4c3B(O)OC4)cc2[nH]1 and print it.
[reply] 196 µg·h/mL

---

# experimental-protocol: Pharmacokinetics in Mongolian gerbils
# Type: in vivo
# particulars: blood, po, 10 mg/kg, Table 3, PO, dose 10; read-out: %F
attribute-measured: bioavailability (%)
Write down the numeric answer in % and omit the unit.

[ask] Retrieve bioavailability measured for COC(=O)Nc1nc2ccc(C(=O)c3cccc4c3B(O)OC4)cc2[nH]1 [compound 21] and print it.
[reply] 100

---

# experimental-protocol: Pharmacokinetics in Mongolian gerbils
# Format: in vivo
# particulars: blood, sc, 10 mg/kg, Table 3, SC, dose 10; read-out: %F
attribute-measured: bioavailability
Provide the measurement as a number trailed by its unit.

[ask] Retrieve bioavailability measured for COC(=O)Nc1nc2ccc(C(=O)c3cccc4c3B(O)OC4)cc2[nH]1 and print it.
[reply] 100%

---

# experimental-protocol: Pharmacokinetics in Mongolian gerbils
# Type: in vivo
# particulars: blood, 60 mg/kg; Table 3, PO, dose 60; read-out: Cmax
attribute-measured: Cmax (ng/mL)
Write down the numeric answer in ng/mL and omit the unit.

[ask] Retrieve Cmax measured for COC(=O)Nc1nc2ccc(C(=O)c3cccc4c3B(O)OC4)cc2[nH]1 and print it.
[reply] 26300

---

# experimental-protocol: Metabolic stability (Clint) in human microsomes
# Type: in vitro ADME
// values below are reported microsomal CLint
Write down the numeric answer in µL/min/mg and omit the unit.

* COC(=O)Nc1nc2ccc(C(=O)c3cccc4c3B(O)OC4)cc2[nH]1 [compound 21] | 5.9
* COC(=O)Nc1nc2cc(C(=O)CCc3ccc4c(c3)B(O)OC4(C)C)ccc2[nH]1 [compound 32] | 7.63
* COC(=O)Nc1nc2cc(C(=O)c3cccc4c3COB4O)ccc2[nH]1 [compound 19] | 5.56

Next, consider the following compound.
[ask] Retrieve microsomal CLint measured for COC(=O)Nc1nc2ccc(C(=O)c3ccc(F)c4c3B(O)OC4)cc2[nH]1 [compound 26] and print it.
[reply] 11.1

---

# experimental-protocol: Pharmacokinetics in Mongolian gerbils
# Assay type: in vivo
# particulars: blood, 100 mg/kg; Table 3, PO, dose 100; read-out: Cmax
# Source text: In addition, the concentrations achieved at these doses were well in excess of the O. volvulus IC50, a requirement for in vivo activity that we had hypothesized on the basis of earlier work in the amide-linked series.
attribute-measured: Cmax
Provide the measurement as a number trailed by its unit.

[ask] Retrieve Cmax measured for COC(=O)Nc1nc2ccc(C(=O)c3cccc4c3B(O)OC4)cc2[nH]1 [compound 21] and print it.
[reply] 34500 ng/mL

---

# experimental-protocol: Pharmacokinetics in Mongolian gerbils
# Format: in vivo
# particulars: blood, 10 mg/kg; Table 3, SC, dose 10; read-out: AUC0-last
attribute-measured: AUC(0-t) (ng·h/mL)
Write down the numeric answer in ng·h/mL and omit the unit.

[ask] Retrieve AUC(0-t) measured for COC(=O)Nc1nc2ccc(C(=O)c3cccc4c3B(O)OC4)cc2[nH]1 [compound 21] and print it.
[reply] 35700

---

// values below are reported bioavailability
# experimental-protocol: Pharmacokinetics in Mongolian gerbils
# Format: in vivo
# particulars: blood, po, 10 mg/kg, Mongolian gerbils, dose 10, PO; read-out: bioavailability (%F)
Write down the numeric answer in % and omit the unit.

[ask] Retrieve bioavailability measured for COC(=O)Nc1nc2cc(C(=O)c3ccc4c(c3)COB4O)ccc2[nH]1 and print it.
[reply] 17

[ask] Retrieve bioavailability measured for COC(=O)Nc1nc2cc(C(=O)c3ccc4c(c3)B(O)OC4)ccc2[nH]1 and print it.
[reply] 18

[ask] Retrieve bioavailability measured for COC(=O)Nc1nc2ccc(C(=O)c3ccc(F)c4c3B(O)OC4)cc2[nH]1 and print it.
[reply] 24

---

# experimental-protocol: Metabolic stability (Clint) in gerbil microsomes
# Assay type: in vitro ADME
attribute-measured: microsomal CLint

Here are 3 compounds together with their reported answers.
* COC(=O)Nc1nc2cc(C(=O)c3cccc4c3B(O)O[C@H]4C)ccc2[nH]1 (single isomer, unassigned) | < 4 µL/min/mg
* COC(=O)Nc1nc2ccc(C(=O)c3ccc(F)c4c3B(O)OC4)cc2[nH]1 | 11.6 µL/min/mg
* COC(=O)Nc1nc2cc(C(=O)c3ccc(F)cc3)ccc2[nH]1 [compound 3, flubendazole, reference compound] | < 4 µL/min/mg

Next, consider the following compound.
[ask] Retrieve microsomal CLint measured for COC(=O)Nc1nc2ccc(C(=O)c3cc(F)cc4c3B(O)OC4)cc2[nH]1 and print it.
[reply] < 4 µL/min/mg

---

# Test system: P-gp (MDR1)
# experimental-protocol: MDCK-MDR1 cell monolayer permeability assay
# Type: in vitro ADME
# particulars: dog
// values below are reported Papp A→B
Write down the numeric answer in ×10⁻⁶ cm/s and omit the unit.

Here are 5 compounds together with their reported answers.
* COC(=O)Nc1nc2cc(C(=O)c3ccc4c(c3)B(O)OC4)ccc2[nH]1 | 6
* COC(=O)Nc1nc2ccc(C(=O)c3ccc4c(c3)B(O)OC4(C)C)cc2[nH]1 | 20.7
* COC(=O)Nc1nc2cc(C(=O)c3ccc4c(c3)B(O)O[C@H]4C)ccc2[nH]1 (single isomer, unassigned) | 15.5
* COC(=O)Nc1nc2ccc(C(=O)c3cc(F)cc4c3B(O)OC4)cc2[nH]1 | 32
* COC(=O)Nc1nc2ccc(C(=O)c3ccc(Cl)c4c3B(O)OC4)cc2[nH]1 | 28

[ask] Retrieve Papp A→B measured for COC(=O)Nc1nc2cc(C(=O)c3cccc4c3B(O)O[C@@H]4C)ccc2[nH]1 (single isomer, unassigned) and print it.
[reply] 57.2

[ask] Retrieve Papp A→B measured for COC(=O)Nc1nc2cc(C(=O)CCc3ccc4c(c3)B(O)OC4(C)C)ccc2[nH]1 and print it.
[reply] 16

---

// values below are reported IC50
# Test system: mammalian tubulin (G2/M arrest)
# experimental-protocol: G2/M arrest assay, indicative of interaction with mammalian tubulin
# Format: cell-based

- COC(=O)Nc1nc2ccc(C(=O)c3ccc4c(c3)B(O)OC4(C)C)cc2[nH]1 [compound 23]: > 100 µM
- COC(=O)Nc1nc2cc(C(=O)c3cccc4c3COB4O)ccc2[nH]1 [compound 19]: > 100 µM

[ask] Retrieve IC50 measured for COC(=O)Nc1nc2ccc(C(=O)c3cccc4c3B(O)OC4)cc2[nH]1 [compound 21] and print it.
[reply] > 38 µM

---

# experimental-protocol: Pharmacokinetics in Mongolian gerbils
# Assay type: in vivo
# particulars: blood, 10 mg/kg; Mongolian gerbils, dose 10, PO; read-out: AUC0–24
attribute-measured: AUC(0-t) (ng·h/mL)
Write down the numeric answer in ng·h/mL and omit the unit.

Here are 3 molecules together with their reported answers.
* COC(=O)Nc1nc2cc(C(=O)c3ccc4c(c3)COB4O)ccc2[nH]1 | 990
* COC(=O)Nc1nc2ccc(C(=O)c3ccc(F)c4c3B(O)OC4)cc2[nH]1 | 23500
* COC(=O)Nc1nc2ccc(C(=O)c3cccc4c3B(O)OC4)cc2[nH]1 | 61700

[ask] Retrieve AUC(0-t) measured for COC(=O)Nc1nc2cc(C(=O)c3cccc4c3B(O)O[C@H]4C)ccc2[nH]1 (single isomer, unassigned) and print it.
[reply] 141000

Values compiled from paper PMC7026882.
